CysLT1R efficacy (percent inhibition of the control response to 0.1 nM LTD4) reference
Target: Human CysLT1 (LTD4) (Homo sapiens)
Construct: Eurofins Cerep-Panlabs (France), contract assay
Assay: Human CysLT1 (LTD4) antagonist effect cellular functional assay (Ca2+ fluorescence, Eurofins Cerep-Panlabs)
Assay type: cell-based
Conditions: antagonist effect
measured parameter: CysLT1R efficacy (percent inhibition of the control response to 0.1 nM LTD4) (%)

smiles text: COC(=O)CCCCOc1cccc(OCc2ccc3ccccc3n2)c1
readout value: 76
//
smiles text: O=C(O)CCCCOc1cccc(OCc2ccc3ccccc3n2)c1
readout value: 99.6
//
smiles text: OCc1ccc(-c2ccc(OCc3ccc4ccccc4n3)cc2)cc1
readout value: 0.8

====

Target: Human CysLT1 (LTD4) (Homo sapiens, UniProt Q9Y271)
Construct: Eurofins Cerep-Panlabs (France), contract assay
Sequence (Q9Y271 1-337): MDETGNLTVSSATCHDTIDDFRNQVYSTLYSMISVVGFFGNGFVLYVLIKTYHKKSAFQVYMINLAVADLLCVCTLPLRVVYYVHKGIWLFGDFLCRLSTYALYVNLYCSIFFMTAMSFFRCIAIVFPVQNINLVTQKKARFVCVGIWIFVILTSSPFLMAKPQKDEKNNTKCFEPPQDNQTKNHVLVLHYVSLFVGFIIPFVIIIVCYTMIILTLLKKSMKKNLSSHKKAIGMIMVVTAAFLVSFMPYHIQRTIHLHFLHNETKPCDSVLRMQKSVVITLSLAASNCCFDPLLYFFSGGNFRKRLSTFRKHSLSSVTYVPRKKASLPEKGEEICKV
Assay: Human CysLT1 (LTD4) antagonist effect cellular functional assay (Ca2+ fluorescence, Eurofins Cerep-Panlabs)
Type: cell-based
Details: CysLT1R IC50, antagonist effect, 0.1 nM LTD4

compound: CCCCCC(O)c1cccc(OCc2ccc3ccccc3n2)c1 (stereo not shown) [REV5901]
system name: Human CysLT1 (LTD4) (Homo sapiens, UniProt Q9Y271)
IC50, nM: 2500

====

Target: Human CysLT1 (LTD4) (Homo sapiens)
Construct: Eurofins Cerep-Panlabs (France), contract assay
Test: Human CysLT1 (LTD4) antagonist effect cellular functional assay (Ca2+ fluorescence, Eurofins Cerep-Panlabs)
Format: cell-based
Details: antagonist effect
measured parameter: CysLT1R efficacy (percent inhibition of the control response to 0.1 nM LTD4) (%)

smiles text: COC(=O)CCCOc1cccc(OCc2ccc3ccccc3n2)c1
units label: %
readout value: 92.1

smiles text: OCCCCCOc1cccc(OCc2ccc3ccccc3n2)c1
units label: %
readout value: 106.9

smiles text: OCCCCOc1cccc(OCc2ccc3ccccc3n2)c1
units label: %
readout value: 108.6

smiles text: O=C(O)CCCOc1cccc(OCc2ccc3ccccc3n2)c1
units label: %
readout value: 92.8

smiles text: OCc1cccc(-c2ccc(OCc3ccc4ccccc4n3)cc2)c1
units label: %
readout value: 59

====

Test: Aqueous solubility in PBS pH 7.4 by LC-MS/MS
Format: physicochemical
Settings: PBS pH 7.4
measured parameter: solubility at 24 h (µM)

smiles text: O=C(O)c1cccc(-c2ccc(OCc3ccc4ccccc4n3)cc2)c1
units label: µM
readout value: 66

====

Target: Human CysLT1 (LTD4) (Homo sapiens)
Construct: Eurofins Cerep-Panlabs (France), contract assay
Sequence (Q9Y271 1-337): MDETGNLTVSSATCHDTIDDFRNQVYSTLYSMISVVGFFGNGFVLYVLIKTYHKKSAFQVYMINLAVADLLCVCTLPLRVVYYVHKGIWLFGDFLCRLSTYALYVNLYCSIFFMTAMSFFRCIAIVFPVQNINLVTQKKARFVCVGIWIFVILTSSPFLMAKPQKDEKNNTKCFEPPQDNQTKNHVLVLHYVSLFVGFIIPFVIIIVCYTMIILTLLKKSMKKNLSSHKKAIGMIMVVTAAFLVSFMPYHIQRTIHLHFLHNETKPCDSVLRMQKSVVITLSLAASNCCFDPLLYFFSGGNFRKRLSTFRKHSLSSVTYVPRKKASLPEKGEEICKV
Test: Human CysLT1 (LTD4) antagonist effect cellular functional assay (Ca2+ fluorescence, Eurofins Cerep-Panlabs)
Format: cell-based
Conditions: antagonist effect, 0.1 nM LTD4; read-out: CysLT1R IC50
Hi! Could you tag entries with IC50 below 900 nM as Met, and those at or above as Not met? Much appreciated.

smiles text: COC(=O)CCCCOc1cccc(OCc2ccc3ccccc3n2)c1
category label: Not met

smiles text: OCCCCCOc1cccc(OCc2ccc3ccccc3n2)c1
category label: Met

smiles text: OCCCCOc1cccc(OCc2ccc3ccccc3n2)c1
category label: Met

smiles text: COC(=O)CCCOc1cccc(OCc2ccc3ccccc3n2)c1
category label: Not met

====

Molecular target: human GPBAR1 (Homo sapiens, UniProt Q8TDU6)
Construct: expressed in transfected cells; host or cells: HEK-293T cells, transient transfection (Fugene HD)
Sequence (Q8TDU6 1-330): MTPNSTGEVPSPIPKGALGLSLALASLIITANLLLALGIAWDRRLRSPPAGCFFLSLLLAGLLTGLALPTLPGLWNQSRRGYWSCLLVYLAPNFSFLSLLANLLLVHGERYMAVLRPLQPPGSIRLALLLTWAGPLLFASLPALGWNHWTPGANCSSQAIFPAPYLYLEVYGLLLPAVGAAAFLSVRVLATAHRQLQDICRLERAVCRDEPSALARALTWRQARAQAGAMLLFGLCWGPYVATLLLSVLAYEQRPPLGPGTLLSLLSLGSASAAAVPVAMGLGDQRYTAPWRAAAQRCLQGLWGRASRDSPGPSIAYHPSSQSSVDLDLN
Test: GPBAR1 CRE-luciferase reporter transactivation assay in HEK-293T cells
Format: cell-based
Conditions: HEK-293T; compound 10 µM relative to TLCA (10 μM) as 100, CRE transactivation, HEK293T cells; read-out: GPBAR1 Eff (%) maximum efficacy
Procedure: GPBAR1. […] At 18 h post stimulations, cellular lysates were assayed for luciferase and Renilla activities using the Dual-Luciferase Reporter assay system (E1980, Promega Madison WI). Luminescence was measured using Glomax 20/20 luminometer (Promega, Madison WI). Luciferase activities were normalized with Renilla activities. Agonistic activities of compounds on GPBAR1 were compared to TLCA, which was set as 100%.

smiles text: O=C(O)CCCOc1cccc(OCc2ccc3ccccc3n2)c1
system name: human GPBAR1 (Homo sapiens, UniProt Q8TDU6)
Emax / %: 18.3
--
smiles text: COC(=O)c1ccc(-c2ccc(OCc3ccc4ccccc4n3)cc2)cc1
system name: human GPBAR1 (Homo sapiens, UniProt Q8TDU6)
Emax / %: 13.5
--
smiles text: COC(=O)CCCOc1cccc(OCc2ccc3ccccc3n2)c1
system name: human GPBAR1 (Homo sapiens, UniProt Q8TDU6)
Emax / %: 20.2
--
smiles text: COC(=O)c1cccc(-c2ccc(OCc3ccc4ccccc4n3)cc2)c1
system name: human GPBAR1 (Homo sapiens, UniProt Q8TDU6)
Emax / %: 56.9
--
smiles text: OCCCCOc1cccc(OCc2ccc3ccccc3n2)c1
system name: human GPBAR1 (Homo sapiens, UniProt Q8TDU6)
Emax / %: 12.8
--
smiles text: COC(=O)CCCCOc1cccc(OCc2ccc3ccccc3n2)c1
system name: human GPBAR1 (Homo sapiens, UniProt Q8TDU6)
Emax / %: 20.5
--
smiles text: O=C(O)CCCCOc1cccc(OCc2ccc3ccccc3n2)c1
system name: human GPBAR1 (Homo sapiens, UniProt Q8TDU6)
Emax / %: 12
--
smiles text: O=C(O)c1ccc(-c2ccc(OCc3ccc4ccccc4n3)cc2)cc1
system name: human GPBAR1 (Homo sapiens, UniProt Q8TDU6)
Emax / %: 36.7
--
smiles text: OCCCCCOc1cccc(OCc2ccc3ccccc3n2)c1
system name: human GPBAR1 (Homo sapiens, UniProt Q8TDU6)
Emax / %: 30.8
--
smiles text: OCc1cccc(-c2ccc(OCc3ccc4ccccc4n3)cc2)c1
system name: human GPBAR1 (Homo sapiens, UniProt Q8TDU6)
Emax / %: 2.1
--
smiles text: O=C(O)c1cccc(-c2ccc(OCc3ccc4ccccc4n3)cc2)c1
system name: human GPBAR1 (Homo sapiens, UniProt Q8TDU6)
Emax / %: 82
--
smiles text: OCc1ccc(-c2ccc(OCc3ccc4ccccc4n3)cc2)cc1
system name: human GPBAR1 (Homo sapiens, UniProt Q8TDU6)
Emax / %: 64.9

====

Assay: Metabolic stability in human liver microsomes
Assay type: in vitro ADME
Settings: pH 7.4; human liver microsomes, 1 µM; read-out: Microsomes t1/2
measured parameter: half-life at 1 µM (h)

smiles text: O=C(O)c1cccc(-c2ccc(OCc3ccc4ccccc4n3)cc2)c1
measured parameter: half-life at 1 µM
readout value: 9.63

====

Target: human GPBAR1 (Homo sapiens, UniProt Q8TDU6)
Sequence (Q8TDU6 1-330): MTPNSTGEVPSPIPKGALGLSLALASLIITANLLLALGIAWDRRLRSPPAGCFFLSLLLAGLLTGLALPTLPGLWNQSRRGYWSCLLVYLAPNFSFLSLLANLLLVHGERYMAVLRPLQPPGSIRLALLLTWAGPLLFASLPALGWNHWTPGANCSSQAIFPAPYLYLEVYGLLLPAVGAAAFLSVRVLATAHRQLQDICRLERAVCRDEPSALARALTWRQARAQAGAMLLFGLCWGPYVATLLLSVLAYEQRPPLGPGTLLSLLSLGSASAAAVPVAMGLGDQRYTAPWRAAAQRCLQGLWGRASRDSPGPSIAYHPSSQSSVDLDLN
Assay: GPBAR1 CRE-luciferase reporter transactivation assay in HEK-293T cells
Conditions: HEK293T cells, CRE luciferase
pEC50: −log10 of the molar value.

compound: O=C(O)c1cccc(-c2ccc(OCc3ccc4ccccc4n3)cc2)c1 [Compound 2]
pEC50: 5.34
